In this section we review reported IC50 values for a set of binders.
molecular target: T1, recombinant human c-Met extracellular domain (R&D systems) (human, UniProt P08581 25-932); test: competition ELISA on coated recombinant c-Met extracellular domain; blocked ligand Europium-conjugated HGF; column headed EC50 on the sheet, called IC50 in paragraph 270; lower panel
T1 construct: extracellular domain; Bought reagent; also called coated extracellular domain of c-Met; recombinant c-Met
State the answer as a number, implicitly in µg/mL.

Sample answers from the record:
anti-c-Met HuMab 098 (IgG1) (antibody, V domains shown, also called TH1016-098; PC1016-098) VH: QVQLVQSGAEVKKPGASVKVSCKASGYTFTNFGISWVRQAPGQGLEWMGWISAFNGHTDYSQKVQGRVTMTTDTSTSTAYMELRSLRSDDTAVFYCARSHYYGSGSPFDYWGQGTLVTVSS VL: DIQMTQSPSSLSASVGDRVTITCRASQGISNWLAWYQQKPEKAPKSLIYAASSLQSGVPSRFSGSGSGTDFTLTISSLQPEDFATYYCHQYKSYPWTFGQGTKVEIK    0.0135
IgG1-1016-069 (antibody, V domains shown, also called clone 069; TH1016-069) VH: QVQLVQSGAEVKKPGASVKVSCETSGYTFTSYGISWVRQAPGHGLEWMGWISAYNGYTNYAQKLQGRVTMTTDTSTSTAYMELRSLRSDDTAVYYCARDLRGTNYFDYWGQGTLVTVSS VL: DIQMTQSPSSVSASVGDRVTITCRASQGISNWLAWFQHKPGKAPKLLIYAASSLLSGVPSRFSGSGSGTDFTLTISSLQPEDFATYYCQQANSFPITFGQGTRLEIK    0.0267
anti-c-Met HuMab 096 (IgG1) (antibody, V domains shown, also called TH1016-096; PC1016-096) VH: EVQLVQSGAEVKKPGESLKISCKGSGYSFTSYWIGWVRQMPGKGLEWMGIIYPGDSDTRYSPSFQGQVTISADKSISTAYLQWSSLKASDTAMYYCARQEITGDFDYWGQGTLVTVSS VL: AIQLTQSPSSLSASVGDRVTITCRASQGISSALAWYQQKPGKAPNLLIYAASSLESGVPSRFSGSGSGTDFTLTISSLQPEDFATYYCQQFNSYPLTFGGGTKVEIK    0.0152

Shift focus to the following entry.
Reported IC50 for anti-c-Met HuMab 181 (IgG1) (antibody, V domains shown, also called TH1016-181; PC1016-181) VH: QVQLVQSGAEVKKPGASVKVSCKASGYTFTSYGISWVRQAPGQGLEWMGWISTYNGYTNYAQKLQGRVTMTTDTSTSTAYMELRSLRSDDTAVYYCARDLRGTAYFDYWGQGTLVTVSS VL: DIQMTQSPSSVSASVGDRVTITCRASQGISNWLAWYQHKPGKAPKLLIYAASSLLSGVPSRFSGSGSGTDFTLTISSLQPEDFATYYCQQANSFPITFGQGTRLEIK : what is it?
0.0103
